Target: T1, human Angiopoietin-2 (human, UniProt O15123 19-496)
T1 construct: Mostly bought recombinant protein (R&D Systems 623-AM/CF, 623-AN; biotinylated BT623) or supernatant of transfected 293F cells; also called Ang-2; rhAng-2
T1 sequence: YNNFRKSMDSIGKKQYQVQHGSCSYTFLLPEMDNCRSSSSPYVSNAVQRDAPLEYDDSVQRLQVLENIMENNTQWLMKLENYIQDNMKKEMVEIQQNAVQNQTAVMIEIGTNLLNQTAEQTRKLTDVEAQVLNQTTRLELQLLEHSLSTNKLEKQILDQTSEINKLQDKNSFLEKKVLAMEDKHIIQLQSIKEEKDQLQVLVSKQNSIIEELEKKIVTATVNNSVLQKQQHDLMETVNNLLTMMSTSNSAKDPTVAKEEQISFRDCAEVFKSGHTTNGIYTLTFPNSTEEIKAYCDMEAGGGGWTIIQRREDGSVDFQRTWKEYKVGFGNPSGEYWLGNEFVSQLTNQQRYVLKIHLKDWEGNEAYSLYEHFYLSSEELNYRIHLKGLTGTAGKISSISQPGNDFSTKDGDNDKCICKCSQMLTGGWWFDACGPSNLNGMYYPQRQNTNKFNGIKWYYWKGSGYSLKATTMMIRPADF
Assay: Biacore, mAb captured
Give measured kon for each item. Keep answers brief.
Please reply with the bare figure in M⁻¹ s⁻¹ and do not write the unit itself.

Check the records and state kon for mAb 6.3.1 (antibody, V domains shown, Human hybridoma IgG (XenoMouse); also called x6.3) VH: QVQLVQSGAEVKKPGASVKVSCKASGYTFTGYFMHWVPQAPGQGLEWMGWINPNSGGTNYAQNFQGRVTMTRDTSISTAYMELSRLRSDDTPVYYCARDPWQNWNSYFDYWGQGTLVTVSS VL: DIQMTQSPSSLSASVGDRVTITCRASQSIRSYLNWYQQKPGKAPKVLIYAASSLQSGVPSRFSGSGSGTDFTLTISSLQPEDFATYYCQQSYSTLCSFGQGTKLEIKR
140000

Check the records and state kon for mAb 5.56.1 (antibody, V domains shown, Human hybridoma IgG (XenoMouse); also called x5.56) VH: QVQLVESGGGVVQPGRSLRLSCAASGFTFSSYGMHWVRQAPGKGLEWVAVIWYDGSNKYYADSVKGRFTISRDNSKNTLYLQMNSLRAEDTAVYYCAREDNWNFYFDYWGQGTLVTVSS VL: DIQMTQSPSSLSASVGDRVTITCRASQGISYYLAWYQQKPGKVPKLLIYAASTLQSGVPSRFSGSGSGTDFTLTISSLQPEDVATYYCQKYNSAPFTFGPGTKVDIKR
190000
